Exercise: for every item that follows, state its recorded normalized growth.
experiment: chemical genetic growth profiling, strain panel (AID 1159580);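 further: tested at 20 µM; growth read once vehicle control cultures reached saturation at 30 °C; 1 = growth at the plate median or of vehicle wells; lower values mean less growth of the strain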; conditions: S. cerevisiae deletion strains, growth OD, locus YDL101C, strain DUN1, hits give low values
Among all 5,500 compounds or so, about 2,000 (36%) were called active. Not shown: some 18% with an inconclusive outcome. The list shows a part of the results.
Numbers only.

COC(=O)CC1C(C)(C)C(=O)C2CC3(O)C4=CC(=O)OC(c5ccoc5)C4(C)CCC3C1(C)C2=O (stereo unspecified) = 1
CC(=O)OCC1=C(C(=O)O)N2C(=O)[C@@H](NC(=O)CSc3ccncc3)[C@H]2SC1 = 0.988
COC(=O)C(O)[C@H]1C(C)(C)[C@@H](OC(C)=O)[C@@H]2CC3=C4CC(=O)O[C@@H](c5ccoc5)[C@]4(C)CCC3[C@@]1(C)C2=O (stereo partly specified) = 1.01
CCOC(=O)c1ccc(N2CC3CCCCN3C2c2ccc(Cl)c(Cl)c2)cc1 (stereo unspecified) = 1
CC(C)Cn1c(=O)n(C)c(=O)c2[nH]cnc21 = 0.984

Now turn to the next compound.
For the compound COC(=O)C(Cc1c[nH]c2ccccc12)NC(=O)c1c(Cl)cccc1Cl (stereo unspecified) , what normalized growth is on record?
0.993
